The following compounds are listed with their measured melting point values.
Where a name gives a salt, the structure may show the parent alone.

**Query** Look up melting point of O=C1NCCc2ccc(OCCCCN3CCN(c4cccc5ccc(F)cc45)CC3)nc2N1 (as salt: HCl) and report it.
**Result** 234 °C

**Query** Look up melting point of O=C1NCCc2ccc(OCCCCN3CCN(c4cccc5c4OCCC5)CC3)nc2N1 (as salt: HCl) and report it.
**Result** 154 to 156 °C

**Query** Look up melting point of CC1(C)CCC(=O)Nc2cc(OCCCCCN3CCN(c4cccc(Cl)c4Cl)CC3)ccc21 and report it.
**Result** 128 to 130 °C

**Query** Look up melting point of CC1(C)CCc2ccc(OCCCCN3CCN(c4cccc(Cl)c4Cl)CC3)cc2NC1=O and report it.
**Result** 110 to 112 °C

**Query** Look up melting point of O=C1NCCc2ccc(OCCCCN3CCN(c4cccc5c4OCCCO5)CC3)nc2N1 and report it.
**Result** 78 to 79 °C

---
**Query** Look up melting point of CC1(C)CCC(=O)Nc2cc(OCCCCN3CCN(c4cccc(Cl)c4Cl)CC3)ccc21 and report it.
**Result** 106 to 108 °C

**Query** Look up melting point of O=C1NCCc2ccc(OCCCCN3CCN(c4cccc(C5CC5)n4)CC3)cc2N1 and report it.
**Result** 155 to 156 °C

**Query** Look up melting point of CC1(C)CCC(=O)Nc2cc(CCCCCN3CCN(c4cccc(Cl)c4Cl)CC3)ccc21 and report it.
**Result** 168 to 170 °C

**Query** Look up melting point of O=C1NCCc2ccc(OCCCCN3CCN(c4cccc5c4CCCC5)CC3)nc2N1 (as salt: HCl) and report it.
**Result** 185 to 186 °C

----------
Molecular target: Dopamine D2 receptor (hD2L) (Homo sapiens, UniProt P14416)
Sequence (P14416 whole entry): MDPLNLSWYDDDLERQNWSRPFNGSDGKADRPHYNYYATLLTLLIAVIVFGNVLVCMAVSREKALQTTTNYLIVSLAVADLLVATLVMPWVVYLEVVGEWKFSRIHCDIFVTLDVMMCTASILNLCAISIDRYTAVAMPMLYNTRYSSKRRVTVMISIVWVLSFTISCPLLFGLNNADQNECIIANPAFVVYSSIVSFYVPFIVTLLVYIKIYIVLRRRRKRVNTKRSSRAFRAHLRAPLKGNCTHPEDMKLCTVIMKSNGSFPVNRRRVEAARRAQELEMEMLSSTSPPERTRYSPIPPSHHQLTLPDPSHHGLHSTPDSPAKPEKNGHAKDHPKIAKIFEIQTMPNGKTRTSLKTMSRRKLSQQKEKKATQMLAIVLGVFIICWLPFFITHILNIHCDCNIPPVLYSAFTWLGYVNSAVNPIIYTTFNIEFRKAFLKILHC
Experiment: Dopamine D2 Receptor Binding Assay ([3H]spiperone, CHO-hD2L membranes)
Conditions: [3H]spiperone 0.4 nM, membrane preparation from CHO-hD2L cells
Text: The ability of the novel compounds of this invention to bind to the dopamine D2 receptor can be determined using conventional radioligand receptor binding assays. All receptors can be heterologously expressed in cell lines and binding assays can be conducted in membrane preparations from the cell lines using procedures outlined below. IC50 concentrations can be determined by nonlinear regression of concentration-dependent reduction in specific binding. […]
observed_property: Ki (nM)
Record the value in nM, omitting the unit from your answer.

**Query** Look up Ki of CC1(C)CCC(=O)Nc2cc(/C=C/CCCN3CCN(c4cccc(Cl)c4Cl)CC3)ccc21 and report it.
**Result** 70.9

----------
Where a name gives a salt, the structure may show the parent alone.
observed_property: melting point

Consider the following illustrative entries.
**Query** Look up melting point of O=C1NCCc2ccc(OCCCCN3CCN(c4cccc5c4CCC5)CC3)nc2N1 [Example 13] and report it.
**Result** 70 to 72 °C

**Query** Look up melting point of CC1(C)CNC(=O)Nc2cc(CCCCCN3CCN(c4cccc(Cl)c4Cl)CC3)ccc21 [Example 67] and report it.
**Result** 215 to 218 °C

**Query** Look up melting point of O=C1NCCc2ccc(OCCCCN3CCN(c4cccc5ccccc45)CC3)nc2N1 (as salt: HCl) [Example 15] and report it.
**Result** 188 to 190 °C

Consider the additional compound presented here.
**Query** Look up melting point of O=C1NCCc2ccc(/C=C/CCCN3CCN(c4cccc(Cl)c4Cl)CC3)cc2N1 [Example 64] and report it.
**Result** 219 to 220 °C

----------
Target: Dopamine D2 receptor (hD2L) (Homo sapiens)
Test: Dopamine D2 Receptor Binding Assay ([3H]spiperone, CHO-hD2L membranes)
Settings: [3H]spiperone 0.4 nM, membrane preparation from CHO-hD2L cells
observed_property: Ki (nM)
Record the value in nM, omitting the unit from your answer.

Consider the following illustrative entries.
**Query** Look up Ki of O=C1CCCc2ccc(OCCCCN3CCN(c4cccc5ccc(F)cc45)CC3)nc2N1 and report it.
**Result** 1

**Query** Look up Ki of O=C1CCCc2ccc(OCCCCN3CCN(c4cccc(Cl)c4Cl)CC3)nc2N1 and report it.
**Result** 5.48

**Query** Look up Ki of O=C1NCCc2ccc(OCCCCN3CCN(c4ccc(F)c(Cl)c4Cl)CC3)cc2N1 and report it.
**Result** 3

**Query** Look up Ki of O=C1CCCc2ccc(OCCCCN3CCN(c4cccc5c4OCC5)CC3)nc2N1 and report it.
**Result** 3.46

---
**Query** Look up Ki of CCc1cccc(N2CCN(CCCCOc3ccc4c(c3)NC(=O)NCC4)CC2)n1 and report it.
**Result** 2.83

**Query** Look up Ki of O=C1NCCc2ccc(/C=C/CCCN3CCN(c4cccc(Cl)c4Cl)CC3)cc2N1 and report it.
**Result** 9.49

**Query** Look up Ki of CC1(C)CNC(=O)Nc2cc(CCCCCN3CCN(c4cccc(Cl)c4Cl)CC3)ccc21 and report it.
**Result** 25

**Query** Look up Ki of O=C1NCCc2ccc(OCCCCN3CCN(c4cccc(Cl)c4Cl)CC3)nc2N1 and report it.
**Result** 1

**Query** Look up Ki of O=C1CCCc2ccc(OCCCCN3CCN(c4cccc5c4OCCC5)CC3)nc2N1 and report it.
**Result** 2

----------
Target: Dopamine D2 receptor (hD2L) (Homo sapiens)
Assay: Dopamine D2 Receptor Binding Assay ([3H]spiperone, CHO-hD2L membranes)
Settings: [3H]spiperone 0.4 nM, membrane preparation from CHO-hD2L cells
Description: The ability of the novel compounds of this invention to bind to the dopamine D2 receptor can be determined using conventional radioligand receptor binding assays. All receptors can be heterologously expressed in cell lines and binding assays can be conducted in membrane preparations from the cell lines using procedures outlined below. IC50 concentrations can be determined by nonlinear regression of concentration-dependent reduction in specific binding. […]
observed_property: pKi
FYI, pKi means -log10 of a concentration in mol per litre.

**Query** Fetch value of pKi on Dopamine D2 receptor (hD2L) (Homo sapiens) for CC1(C)Cc2ccc(OCCCCN3CCN(c4cccc5ccccc45)CC3)cc2NC(=O)N1 .
**Result** 8.52

---
**Query** Fetch value of pKi on Dopamine D2 receptor (hD2L) (Homo sapiens) for O=C1NCCc2ccc(OCCCCN3CCN(c4cccc5c4OCCCO5)CC3)nc2N1 .
**Result** 9.00

**Query** Fetch value of pKi on Dopamine D2 receptor (hD2L) (Homo sapiens) for O=C1NCCc2ccc(OCCCCN3CCN(c4cccc5c(F)cccc45)CC3)cc2N1 .
**Result** 7.94

**Query** Fetch value of pKi on Dopamine D2 receptor (hD2L) (Homo sapiens) for O=C1NCCc2ccc(OCCCCN3CCN(c4cccc5nsnc45)CC3)cc2N1 .
**Result** 8.59

**Query** Fetch value of pKi on Dopamine D2 receptor (hD2L) (Homo sapiens) for Cc1c(F)ccc(N2CCN(CCCCOc3ccc4c(c3)NC(=O)NCC4)CC2)c1Cl .
**Result** 8.70

**Query** Fetch value of pKi on Dopamine D2 receptor (hD2L) (Homo sapiens) for O=C1NCCc2ccc(OCCCN3CCN(c4cccc5ccc(F)cc45)CC3)cc2N1 .
**Result** 8.26

**Query** Fetch value of pKi on Dopamine D2 receptor (hD2L) (Homo sapiens) for CC1(C)CCC(=O)Nc2cc(CCCCCN3CCN(c4cccc(Cl)c4Cl)CC3)ccc21 .
**Result** 7.25

**Query** Fetch value of pKi on Dopamine D2 receptor (hD2L) (Homo sapiens) for CN1C(=O)CCc2cccc(N3CCN(CCCCOc4ccc5c(n4)NC(=O)NCC5)CC3)c21 .
**Result** 8.52

----------
Where a name gives a salt, the structure may show the parent alone.
The following molecules are listed with their measured melting point values.

Consider the following illustrative entries.
**Query** Look up melting point of O=C1NCCc2ccc(OCCCN3CCN(c4cccc(Cl)c4Cl)CC3)cc2N1 [Example 28] and report it.
**Result** 183 to 184 °C

**Query** Look up melting point of CC1(C)CCC(=O)Nc2cc(/C=C/CCCN3CCN(c4cccc(Cl)c4Cl)CC3)ccc21 [Example 69] and report it.
**Result** 108 to 109 °C

**Query** Look up melting point of O=C1NCCc2ccc(OCCCCN3CCN(c4cccc(Cl)c4Cl)CC3)nc2N1 (as salt: HCl) [Example 14] and report it.
**Result** 197 to 199 °C

**Query** Look up melting point of CN1CCc2ccc(OCCCCN3CCN(c4cccc(Cl)c4Cl)CC3)cc2NC1=O [Example 25] and report it.
**Result** 139 to 140 °C

**Query** Look up melting point of O=C1NCCc2ccc(OCCCCN3CCN(c4cccc(Cl)c4Cl)CC3)cc2N1 [Example 29] and report it.
**Result** 185 to 186 °C

**Query** Look up melting point of CC1(C)CCC(=O)Nc2cc(OCCCN3CCN(c4cccc(Cl)c4Cl)CC3)ccc21 [Example 53] and report it.
**Result** 162 to 164 °C

**Query** Look up melting point of O=C1NCCc2ccc(OCCCCN3CCN(c4cccc5c4OCC5)CC3)nc2N1 [Example 19] and report it.
**Result** 72 to 73 °C

Consider the additional molecule presented here.
**Query** Look up melting point of O=C1NCCc2ccc(CCCCCN3CCN(c4cccc(Cl)c4Cl)CC3)cc2N1 [Example 65] and report it.
**Result** 159 to 161 °C
